Tested on: β-glycosidase
Test: minimum effective amount of competitive inhibitor, operation of Example 1 repeated
Details: based on the weight of the whole soybeans
Provide the recorded Minimum effective amount (weight %) for the entries that follow.
Give just the number in weight %; leave the unit off.

For the compound shown here, OC[C@H]1NC(O)[C@H](O)[C@@H](O)[C@@H]1O (stereo partly shown) , give the reported Minimum effective amount (weight %).
0.01

Now consider OC[C@H]1OC(O)[C@H](O)[C@@H](O)[C@@H]1O (stereo partly shown) .
40

Now consider O=C1O[C@H](CO)[C@H](O)[C@H](O)[C@H]1O .
20

Now consider C[C@@H]1OC(=O)[C@@H](O)[C@H](O)[C@@H]1O .
0.02
